Source listed as patent US20090054493A1.

Task for the reader: assign each of the following compounds its reported CC50 at 24 h.
Experiment: MTT assay, cytotoxicity
Format: cell-based
Settings: African green monkey, CV-1 cells, read-out: LC50 Cytotoxicity

Record excerpt, results attached:
Compound | Observation Type | Result
Cc1cc(SC(Cc2c(F)cccc2Cl)c2sc(-c3ccc(C(F)(F)F)c(F)c3)nc2C)ccc1OCC(=O)O (stereo not drawn) [Example 91] | CC50 at 24 h | > 10 µM
Cc1cc(SC(CCCc2ccccc2)c2sc(-c3ccc(C(F)(F)F)cc3)nc2C)ccc1OCC(=O)O (stereo not drawn) [Example 70] | CC50 at 24 h | 91 µM

Kindly consider the entry below.
query: Please give the measured CC50 at 24 h for this compound: Cc1cc(SC(Cc2c(F)c(F)c(F)c(F)c2F)c2sc(-c3ccc(C(F)(F)F)cc3)nc2C)ccc1OCC(=O)O (stereo not drawn) [Example 80]
result: > 100 µM

###

Molecular target: UniProt:Q03181
Sequence (Q03181 whole entry, species assumed): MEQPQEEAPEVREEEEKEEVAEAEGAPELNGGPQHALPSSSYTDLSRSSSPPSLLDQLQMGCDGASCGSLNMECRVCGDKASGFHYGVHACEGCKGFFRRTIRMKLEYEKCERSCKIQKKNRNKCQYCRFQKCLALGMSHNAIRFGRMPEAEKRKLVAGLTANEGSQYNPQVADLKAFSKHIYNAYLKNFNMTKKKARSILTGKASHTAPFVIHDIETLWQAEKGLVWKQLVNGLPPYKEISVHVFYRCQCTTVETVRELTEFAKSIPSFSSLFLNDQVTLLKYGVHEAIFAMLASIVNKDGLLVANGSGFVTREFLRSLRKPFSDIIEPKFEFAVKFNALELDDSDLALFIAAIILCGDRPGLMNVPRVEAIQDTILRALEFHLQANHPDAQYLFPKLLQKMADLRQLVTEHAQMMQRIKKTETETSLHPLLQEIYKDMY
Assay: Transfection assay (luciferase reporter) in CV-1 cells, PPARδ
Format: cell-based
Set-up: full-length PPARs plasmid DNA; expressed in transfected cells; host or cells: CV-1 cells
Conditions: full-length PPAR plasmid, luciferase normalized with β-galactosidase
Observation Type: pEC50
One number for each entry, as −log10 of the molar value.

Record excerpt, results attached:
Molecule | Assay System | Observation Type | Result Number
Cc1cc(SC(Cc2c(F)cccc2C(F)(F)F)c2sc(-c3ccc(C(F)(F)F)cc3)nc2C)ccc1OCC(=O)O (stereo not shown) | UniProt:Q03181 | pEC50 | 8.59
Cc1cc(SC(Cc2c(F)cccc2F)c2sc(-c3ccc(C(F)(F)F)c(F)c3)nc2C)ccc1OCC(=O)O (stereo not shown) | UniProt:Q03181 | pEC50 | 9.05
Cc1cc(SC(CCCCCc2ccccc2)c2sc(-c3ccc(C(F)(F)F)cc3)nc2C)ccc1OCC(=O)O (stereo not shown) | UniProt:Q03181 | pEC50 | 7.94

Kindly consider the entry below.
query: Please give the measured pEC50 for this molecule: Cc1cc(SC(Cc2c(Cl)cccc2Cl)c2sc(-c3ccc(C(F)(F)F)c(F)c3)nc2C)ccc1OCC(=O)O (stereo not shown)
result: 8.64

###

Target: PPARα (Homo sapiens)
Construct: full-length PPARs plasmid DNA; expressed in transfected cells; host or cells: CV-1 cells
Sequence (Q07869 1-468): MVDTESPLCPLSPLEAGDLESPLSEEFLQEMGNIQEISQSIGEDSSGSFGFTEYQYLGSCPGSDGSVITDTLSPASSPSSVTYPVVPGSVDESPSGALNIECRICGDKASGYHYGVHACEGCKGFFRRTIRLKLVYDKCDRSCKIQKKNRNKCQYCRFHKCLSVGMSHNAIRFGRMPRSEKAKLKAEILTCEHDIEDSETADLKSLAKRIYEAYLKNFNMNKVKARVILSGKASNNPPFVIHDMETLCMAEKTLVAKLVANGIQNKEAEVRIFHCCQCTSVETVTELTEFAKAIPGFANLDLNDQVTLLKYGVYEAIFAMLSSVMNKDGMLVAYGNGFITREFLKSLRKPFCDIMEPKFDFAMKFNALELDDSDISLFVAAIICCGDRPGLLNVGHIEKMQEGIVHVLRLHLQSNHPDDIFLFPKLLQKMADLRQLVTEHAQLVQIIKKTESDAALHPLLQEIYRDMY
Assay: Transfection assay (luciferase reporter) in CV-1 cells, PPARα
Type: cell-based
Details: full-length PPAR plasmid, luciferase normalized with β-galactosidase
Observation Type: EC50 PPARα

Record excerpt, results attached:
Molecule | Observation Type | Result
Cc1cc(SC(CCCCCCCc2ccccc2)c2sc(-c3ccc(C(F)(F)F)cc3)nc2C)ccc1OCC(=O)O (stereo not shown) | EC50 PPARα | ia
Cc1cc(SC(Cc2c(F)cccc2C(F)(F)F)c2sc(-c3ccc(C(F)(F)F)c(F)c3)nc2C)ccc1OCC(=O)O (stereo not shown) | EC50 PPARα | ia
Cc1cc(SC(Cc2c(Cl)cccc2Cl)c2sc(-c3ccc(C(F)(F)F)cc3)nc2C)ccc1OCC(=O)O (stereo not shown) | EC50 PPARα | ia
Cc1cc(SC(Cc2c(Cl)cccc2Cl)c2sc(-c3ccc(C(F)(F)F)c(F)c3)nc2C)ccc1OCC(=O)O (stereo not shown) | EC50 PPARα | ia
Cc1cc(SC(Cc2c(F)cccc2C(F)(F)F)c2sc(-c3ccc(C(F)(F)F)cc3)nc2C)ccc1OCC(=O)O (stereo not shown) | EC50 PPARα | ia
Cc1cc(SC(Cc2c(F)cccc2Cl)c2sc(-c3ccc(C(F)(F)F)c(F)c3)nc2C)ccc1OCC(=O)O (stereo not shown) | EC50 PPARα | ia

Kindly consider the entry below.
query: Please give the measured EC50 PPARα for this molecule: Cc1cc(SC(CCCc2ccccc2)c2sc(-c3ccc(C(F)(F)F)cc3)nc2C)ccc1OCC(=O)O (stereo not shown)
result: ia
